experimental-details: Drug metabolism in mouse liver microsomes
Type: ADME, Microsome
measurement-context: read-out: Drug metabolism
experimental-readout: metabolised (%)

a = OCc1cccc(-c2ccc3nc(-c4ccc(Cl)cc4)cn3c2)c1
b = O=C(Nc1ccccc1)c1cn2cc(-c3ccccn3)ccc2n1
Q) When their metabolised values are compared, which is larger, a or b ? Give the label under which the chosen entry appears.
A) b
(b: 21%, a: 8%)

---

target-system: UniProtKB Q06219
Sequence (Q06219 whole entry): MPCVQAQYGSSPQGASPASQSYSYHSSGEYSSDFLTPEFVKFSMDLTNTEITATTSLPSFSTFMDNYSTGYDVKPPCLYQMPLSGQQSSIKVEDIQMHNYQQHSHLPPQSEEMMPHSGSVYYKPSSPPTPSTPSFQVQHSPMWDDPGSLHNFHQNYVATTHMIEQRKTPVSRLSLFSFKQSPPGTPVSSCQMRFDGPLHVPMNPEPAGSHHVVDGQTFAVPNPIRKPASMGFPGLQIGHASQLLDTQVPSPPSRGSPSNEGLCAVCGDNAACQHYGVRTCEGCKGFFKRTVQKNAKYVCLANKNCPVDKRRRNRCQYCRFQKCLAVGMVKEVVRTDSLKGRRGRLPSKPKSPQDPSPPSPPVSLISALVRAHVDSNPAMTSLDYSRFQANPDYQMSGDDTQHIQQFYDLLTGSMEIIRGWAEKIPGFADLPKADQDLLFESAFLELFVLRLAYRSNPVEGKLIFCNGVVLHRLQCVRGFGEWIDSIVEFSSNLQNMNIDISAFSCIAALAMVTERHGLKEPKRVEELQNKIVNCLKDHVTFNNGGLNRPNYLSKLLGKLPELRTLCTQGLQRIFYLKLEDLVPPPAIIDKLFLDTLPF
experimental-details: Agonist activity at Nurr1 in mouse N2A cells harboring NBRE by luciferase reporter gene assay
Format: cell-based
experimental-readout: Emax (%)

O=C(Nc1cc[nH]n1)c1cn2cc(-c3ccccn3)ccc2n1 = 61
N#Cc1ccccc1NC(=O)c1cn2cc(-c3ccccn3)ccc2n1 = 52
O=C(Nc1ccccc1Cl)c1cn2cc(-c3ccccn3)ccc2n1 = 68
O=C(Nc1cccc(F)n1)c1cn2cc(-c3ccccn3)ccc2n1 = 86

A = O=C(Nc1cccc(F)c1F)c1cn2cc(-c3ccccn3)ccc2n1
B = O=C(Nc1ccccc1F)c1cn2cc(-c3ccccn3)ccc2n1
Q) In the pair A and B , the larger recorded Emax belongs to which? Lab note: record the label of whichever item you select.
A) B
(B: 104%, A: 64%)
